- Tested on: SK-MEL-2 melanoma
- test name: NCI tumour cell line growth inhibition, 48 h
readout: GI50

Worked cases, GI50 given:
>  <given smiles>
Cc1cc(C)c(/C=C2\C(=O)Nc3ccc(NC(=O)CCCCCCC(=O)NO)cc32)[nH]1

>  <system>
SK-MEL-2 melanoma

>  <value reported>
1.89 µM

$$$$
>  <given smiles>
COc1ccc(CCNC(=O)c2ccc(NC3=C(Cl)C(=O)N(Cc4ccccc4)C3=O)cc2)cc1OC

>  <system>
SK-MEL-2 melanoma

>  <value reported>
16.8 µM

$$$$

Now for another entry.
Data request: Recorded GI50 for `CCCCCOc1ccc(/C=N/Nc2cc(C)nc3ccc(Br)cc23)cc1` , please?
Data returned: 1.98 µM

---

- System: UACC-62 melanoma
- test name: NCI tumour cell line growth inhibition, 48 h
Known GI50 of a selection of molecules

Worked cases, GI50 given:
>  <molecule>
CN1C(=O)/C(=C/c2c(Cl)n(C)c3ccccc23)c2ccccc21

>  <GI50>
2800 nM

$$$$
>  <molecule>
O=C(CSC1CCc2ccccc21)N/N=C/c1ccccc1O (centres undefined)

>  <GI50>
2820 nM

$$$$
>  <molecule>
O=C(Nc1ccc(F)cc1)c1cc(S(=O)(=O)Nc2nc3ccccc3o2)c(SCc2ccccc2)cc1Cl

>  <GI50>
14400 nM

$$$$

Now for another entry.
Data request: Recorded GI50 for `O=C1NC(=O)/C(=C\c2ccccc2)C2=C1CCCC2` , please?
Data returned: 3130 nM

---

- Tested on: DU-145 prostate
- test name: NCI tumour cell line growth inhibition, 48 h
readout: TGI

Data request: Recorded TGI for `Cn1cc(C2=C(c3cccc(Br)c3)C(=O)NC2=O)c2ccccc21` , please?
Data returned: > 25 µM

Data request: Recorded TGI for `C=C(C(=O)O)[C@@H]1C[C@@H](OC(C)=O)[C@]2(C)CC/C=C(\C)CCC[C@H](C)[C@H](O)[C@@H]1O2` , please?
Data returned: > 100 µM

Data request: Recorded TGI for `N=C(N)c1ccc2nc(-c3cc(CC(=O)N[C@@H](CC(=O)O)C(=O)O)cc(-c4cc(S(N)(=O)=O)ccc4O)c3O)[nH]c2c1` , please?
Data returned: > 100 µM

Data request: Recorded TGI for `O=C1NC(=O)C(c2cccc([N+](=O)[O-])c2)=C1Nc1cc(Cl)c(O)c(Cl)c1` , please?
Data returned: > 25 µM

Data request: Recorded TGI for `CC1=NC(=Cc2cc(Br)cc(Br)c2)C(=O)N1n1c(-c2ccccc2)nc2ccccc2c1=O` , please?
Data returned: > 100 µM

Data request: Recorded TGI for O=C1c2cccc3cccc(c23)C2NCCCN12 (centres undefined) , please?
Data returned: > 100 µM

Data request: Recorded TGI for CC(=O)N(CCc1ccccc1)C(C#N)c1ccccc1 (centres undefined) , please?
Data returned: > 100 µM

Data request: Recorded TGI for `COc1ccc(OC)c(C(Cc2ccnc3ccccc23)Cc2ccnc3ccccc23)c1` , please?
Data returned: > 10 µM

Data request: Recorded TGI for O=C(O)C1C2C=CC(C2)C1c1ccccc1 (centres undefined) , please?
Data returned: > 100 µM

---

- Tested on: HOP-62 NSCLC
- test name: NCI tumour cell line growth inhibition, 48 h
Known TGI of a selection of compounds

Worked cases, TGI given:
>  <given smiles>
CN(C)CCNC(=O)c1ccc2nc3c(nc2c1)C(=O)c1ccccc1-3

>  <TGI>
> 100 µM

$$$$
>  <given smiles>
O=Cc1ccc2c(c1-c1c(C=O)ccc3c1OCO3)OCO2

>  <TGI>
> 100 µM

$$$$

Now for another entry.
Data request: Recorded TGI for `COC(=O)/C=C/c1c(CC=C(C)C)ncn1C` , please?
Data returned: > 100 µM

---

- System: U251 CNS
- test name: NCI tumour cell line growth inhibition, 48 h
Known TGI of a selection of compounds

Worked cases, TGI given:
>  <compound>
O=[N+]([O-])c1ccc(N2N=C(c3ccc(NCc4nc5ccccc5[nH]4)cc3)CC2c2ccco2)cc1 (centres undefined)

>  <readout>
TGI

>  <value reported>
> 100 µM

$$$$
>  <compound>
Cc1cc(C)c2c(c1)C/C(=C\c1ccccc1C(=O)O)C2=O

>  <readout>
TGI

>  <value reported>
> 100 µM

$$$$

Data request: Recorded TGI for COC1=CC2C(c3cc4ccccc4n3S(=O)(=O)c3ccccc3)CC1CN2C(=O)OCc1ccccc1 (centres undefined) , please?
Data returned: > 100 µM

Data request: Recorded TGI for O=C(O)C1C2C=CC(C2)C1c1ccccc1 (centres undefined) , please?
Data returned: > 100 µM

Data request: Recorded TGI for `S=c1[nH]c(=S)c2nnn(-c3ccccc3)c2[nH]1` , please?
Data returned: > 100 µM

---

- System: MOLT-4 leukemia
- test name: NCI tumour cell line growth inhibition, 48 h
Known TGI of a selection of compounds

Worked cases, TGI given:
>  <compound>
O=c1oc2ccccc2cc1-c1cn2ccccc2n1

>  <TGI>
> 80.8 µM

$$$$
>  <compound>
COC(=O)[C@H]1C=C[C@@H](C)n2c(=O)c3cc4ccccc4cc3c(=O)n21

>  <TGI>
> 100 µM

$$$$
>  <compound>
O=C1c2cccc3cccc(c23)C2NCCCN12 (stereo unspecified)

>  <TGI>
> 100 µM

$$$$
>  <compound>
CN1CCc2c(sc3ncn(C)c(=N)c23)C1

>  <TGI>
> 100 µM

$$$$
>  <compound>
O=C(NCCCl)N(O)C(=O)Nc1ccccc1

>  <TGI>
> 100 µM

$$$$

Data request: Recorded TGI for CCOP(=O)(OCC)OC1C=CC2CCC1C2 (stereo unspecified) , please?
Data returned: > 100 µM

Data request: Recorded TGI for `CC(C)N(C(=O)C1(O)c2ccccc2C=Cc2ccccc21)C(C)C` , please?
Data returned: 82.8 µM

Data request: Recorded TGI for `N#Cc1c(N/N=C/c2ccc(Cl)cc2Cl)nc(N)nc1N1CCCC1` , please?
Data returned: > 100 µM

Data request: Recorded TGI for `COC(=O)/C=C/c1c(CC=C(C)C)ncn1C` , please?
Data returned: > 100 µM

Data request: Recorded TGI for CN(C)CC1CCC/C(=C\c2ccc(Cl)cc2)C1=O (stereo unspecified) , please?
Data returned: > 21.7 µM

Data request: Recorded TGI for `O[C@H](c1cc(C(F)(F)F)nc2c(C(F)(F)F)cccc12)[C@@H]1CCCCN1` , please?
Data returned: 11.1 µM

---

- System: RXF 393 renal
- test name: NCI tumour cell line growth inhibition, 48 h
Known GI50 of a selection of compounds

Worked cases, GI50 given:
>  <compound>
COc1cc2c(c(OC)c1OC)-c1ncc3cc4c(cc3c1C2)OCO4

>  <value reported>
24.2 µM

$$$$
>  <compound>
CC(C)(S)C(N)C(=O)O (stereo not given)

>  <value reported>
> 5000 µM

$$$$

Data request: Recorded GI50 for `Cc1cc(C)c(/C=C2\C(=O)Nc3ccc(NC(=O)CCCCCCC(=O)NO)cc32)[nH]1` , please?
Data returned: 1.17 µM

Data request: Recorded GI50 for `COc1ccc(-c2ccc(-c3ccc(C(=N)N)s3)s2)cc1` , please?
Data returned: 1.26 µM

Data request: Recorded GI50 for `Cn1cc(C2=C(c3cccc(Br)c3)C(=O)NC2=O)c2ccccc21` , please?
Data returned: 8.3 µM

Data request: Recorded GI50 for `CCCOc1ccc2sc(NC(=O)OC)nc2c1` , please?
Data returned: 2.71 µM

Data request: Recorded GI50 for `C#COc1cccc(Nc2c(C#N)cnc3ncc(NC(=O)CCl)cc23)c1` , please?
Data returned: > 62.5 µM

Data request: Recorded GI50 for `N=C(N)c1ccc2nc(-c3cc(CC(=O)N[C@@H](CC(=O)O)C(=O)O)cc(-c4cc(S(N)(=O)=O)ccc4O)c3O)[nH]c2c1` , please?
Data returned: > 100 µM

Data request: Recorded GI50 for `CCOC(=O)c1c(NC(=O)c2cccc(C(F)(F)F)c2)sc2c(CN(C)C)c(O)ccc12` , please?
Data returned: 1.81 µM

Data request: Recorded GI50 for COCC1(CO)C(=O)C2CCN1CC2 (stereo not given) , please?
Data returned: 15.7 µM

---

Known TGI of a selection of compounds
- System: UACC-257 melanoma
- test name: NCI tumour cell line growth inhibition, 48 h

Worked cases, TGI given:
>  <compound>
COc1ccc2[nH]c3c(c2c1)CC(=S)N1CCCC(CC3=O)C1 (stereo unspecified)

>  <TGI>
> 100 µM

$$$$
>  <compound>
O=C1/C(=C/c2cccc(Br)c2)Cc2ccccc21

>  <TGI>
> 100 µM

$$$$
>  <compound>
CCC(=O)O[C@H]1CC[C@H]2[C@@H]3CCC4=C/C(=N/OC(=O)c5cccc6c(=O)c7ccccc7[nH]c56)CC[C@]4(C)[C@H]3CC[C@]12C

>  <TGI>
> 100 µM

$$$$
>  <compound>
CCCO/S(=N\S(=O)(=O)c1ccccc1)c1ccccc1[N+](=O)[O-] (stereo unspecified)

>  <TGI>
> 100 µM

$$$$
>  <compound>
COc1cc2c(OC)cc1CSCc1sc(C)c(c1Br)CSC2

>  <TGI>
> 100 µM

$$$$
>  <compound>
CC(C)(S)C(N)C(=O)O (stereo unspecified)

>  <TGI>
> 5000 µM

$$$$

Data request: Recorded TGI for `CCCCCCOc1ccc(Nc2c(O)c3c(c(O)c2Cl)C(=O)C=CC3=O)cc1` , please?
Data returned: > 8.89 µM

Data request: Recorded TGI for `COc1c[c]([Hg][O]C(C)=O)c(OC)c(NC(=O)CC(C)=O)[c]1[Hg][O]C(C)=O` , please?
Data returned: 7.46 µM

Data request: Recorded TGI for COC(=O)C1=C(C(=O)Nc2cccnc2Cl)N(c2ccc(OC)cc2[N+](=O)[O-])C(c2ccc(C)cc2)=CC1c1ccc(OC)cc1OC (stereo unspecified) , please?
Data returned: > 100 µM

Data request: Recorded TGI for `COC(=O)c1c(C#N)[nH]c(-c2ccsc2)c1C(=O)OC` , please?
Data returned: > 100 µM

Data request: Recorded TGI for `COc1ccc(-c2ccc(-c3ccc(C(=N)N)s3)s2)cc1` , please?
Data returned: 1.68 µM

Ref: PubChem BioAssay (NCI)
